Values compiled from patent US20080207498A1.

Biological target: Preformed immune complex of peroxidase and rabbit anti-peroxidase IgG (PAP complex) (horseradish) (UniProt P00433)
Sequence (P00433 31-338, one chain of several): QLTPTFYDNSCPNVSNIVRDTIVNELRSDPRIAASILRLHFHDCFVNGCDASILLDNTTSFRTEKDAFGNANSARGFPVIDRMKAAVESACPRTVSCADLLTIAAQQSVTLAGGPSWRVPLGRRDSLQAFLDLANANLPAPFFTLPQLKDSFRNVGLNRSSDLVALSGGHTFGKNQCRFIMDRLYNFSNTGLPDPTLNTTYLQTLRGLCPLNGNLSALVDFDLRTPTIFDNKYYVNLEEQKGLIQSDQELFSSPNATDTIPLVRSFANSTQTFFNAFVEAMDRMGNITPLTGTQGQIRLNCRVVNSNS
Assay: competition reverse ELISA: PAP pre-incubated with peptide, residual PAP binding to FcγIIb-coated plate
No end group written: not given here.
Observable: OD 405 nm

>>> print(df.to_string())
                                     binder  observable  measured_value
0  APPDCAWHLGELVWCT [Peptide … (SEQ ID NO:16)]   OD 405 nm        0.496 OD
1  APPCARHLGELVWCT (not fully specified; cysteine pairing not given here) [Peptide … (SEQ ID NO:14)]   OD 405 nm        0.768 OD
2  APPCAWHLGELVWCT (not fully specified; cysteine pairing not given here) [Peptide … (SEQ ID NO:13)]   OD 405 nm        0.562 OD
3   DCAFHLGELVWCT [Peptide … (SEQ ID NO:3)]   OD 405 nm         0.51 OD
4  APPCAFHLGELVWCT (not fully specified; cysteine pairing not given here) [Peptide … (SEQ ID NO:15)]   OD 405 nm         0.38 OD
